target system: Beta-secretase 1 (Homo sapiens)
Sequence (P56817 whole entry, the tested form may be a part): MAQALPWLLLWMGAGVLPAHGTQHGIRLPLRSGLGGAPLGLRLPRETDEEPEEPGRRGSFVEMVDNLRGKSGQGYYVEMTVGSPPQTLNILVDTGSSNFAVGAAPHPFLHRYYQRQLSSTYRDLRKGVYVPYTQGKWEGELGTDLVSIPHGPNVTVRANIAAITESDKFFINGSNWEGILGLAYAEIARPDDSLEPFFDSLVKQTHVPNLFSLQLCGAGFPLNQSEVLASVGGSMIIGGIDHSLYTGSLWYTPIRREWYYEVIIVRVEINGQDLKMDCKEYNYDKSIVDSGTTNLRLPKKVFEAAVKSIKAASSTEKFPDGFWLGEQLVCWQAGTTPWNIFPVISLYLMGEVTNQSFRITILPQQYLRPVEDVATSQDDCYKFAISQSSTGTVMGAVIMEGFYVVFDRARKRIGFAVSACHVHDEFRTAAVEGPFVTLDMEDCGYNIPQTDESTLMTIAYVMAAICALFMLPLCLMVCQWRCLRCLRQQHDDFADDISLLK
method summary: Inhibition of BACE1 (1 to 454 residues) (unknown origin) using APP harboring Swedish Lys/Met mutant-derived peptide as substrate by FRET assay
Reported IC50 values for the following molecules.
Quick note: give the figure in nM, leave out the unit.

C[C@@]1(c2cc(NC(=O)c3cnc(OCF)cn3)ccc2F)Cn2nc(C#N)cc2C(N)=N1 : 2.3
COc1cnc(C(=O)Nc2ccc(F)c([C@]3(C)Cn4nc(C#N)cc4C(N)=N3)c2)cn1 : 2.9
C[C@@]1(c2cc(NC(=O)c3ccc(OC(F)F)cn3)ccc2F)Cn2nc(C#N)cc2C(N)=N1 : 1.4
C[C@@]1(c2cc(NC(=O)c3ccc(Cl)cn3)ccc2F)Cn2c(C#N)cnc2C(N)=N1 : 2.6

For this molecule ( C[C@@]1(c2cc(NC(=O)c3ccc(F)cn3)ccc2F)Cn2c(C#N)cnc2C(N)=N1 ), measured IC50 is 11.5

IC50 measured on Cc1nc(C(=O)Nc2ccc(F)c([C@]3(C)Cn4nc(C#N)cc4C(N)=N3)c2)co1 = 4.5

Input C[C@@]1(c2cc(NC(=O)c3ccc(C#N)cn3)ccc2F)Cn2c(C#N)cnc2C(N)=N1 . Output IC50: 3.7

IC50 measured on C[C@@]1(c2cc(NC(=O)c3ccc(C#N)cn3)ccc2F)Cn2cc(C#N)nc2C(N)=N1 = 13

IC50 recorded for this molecule, C[C@@]1(c2cc(NC(=O)c3cnc(C(F)F)cn3)ccc2F)Cn2nc(C#N)cc2C(N)=N1 , is 3.7

----------
method summary: Ratio of unbound drug concentration in brain to blood in CD-1 mouse at 10 mg/kg, po measured at 4 hr post dose
Assay type: ADME, organism-based
assay metric: Kp uu at 4 h
Enter a number only.

Record COc1cnc(C(=O)Nc2ccc(F)c([C@]3(C)Cn4nc(C#N)cc4C(N)=N3)c2)cn1 , field Kp uu at 4 h: 0.22

----------
method summary: Clearance in rat plasma at 0.25 mg/kg, iv
Type: ADME, organism-based
assay metric: clearance (mL/min/kg)
Number in mL/min/kg, nothing else.

Documented clearance of COc1cnc(C(=O)Nc2ccc(F)c([C@]3(C)Cn4nc(C#N)cc4C(N)=N3)c2)cn1 : 19

----------
method summary: Half life in mouse at 0.28 mg/kg, iv
Assay type: ADME, organism-based
run parameters: in vivo
assay metric: half-life (h)
Lab book: enter the figure in h, no units written.

Reported half-life of COc1cnc(C(=O)Nc2ccc(F)c([C@]3(C)Cn4nc(C#N)cc4C(N)=N3)c2)cn1 : 2.8

----------
# fraction unbound at 4.5 h annotations
method summary: Free drug concentration in human plasma measured after 4.5 hrs by HPLC-MS/MS method
Assay type: ADME, cell-free
No unit in the answer, please; the number alone is enough.

C[C@@]1(c2cc(NC(=O)c3ccc(C#N)cn3)ccc2F)Cn2c(C#N)cnc2C(N)=N1 : 0.2

Okay, now this compound:
The compound identified as COc1cnc(C(=O)Nc2ccc(F)c([C@]3(C)Cn4nc(C#N)cc4C(N)=N3)c2)cn1 registered its fraction unbound at 4.5 h at 0.28

----------
method summary: Drug level in CD-1 mouse plasma at 10 mg/kg, po measured at 1 hr post dose
Assay type: ADME, organism-based
assay metric: concentration at 1 h (ng/mL)
Please reply with the bare figure in ng/mL and do not write the unit itself.

Sure, the documented concentration at 1 h for COc1cnc(C(=O)Nc2ccc(F)c([C@]3(C)Cn4nc(C#N)cc4C(N)=N3)c2)cn1 is 591
